# System: BT-549 breast
# TEST_SUMMARY: NCI-60 one-dose screen, 48 h (100 = growth as untreated, 0 = no growth, -100 = all killed)
# RUN_PARAMETERS: 10 µM unless noted
This is part of a sample that, as a whole, favours compounds with a hit. Of some 83,000 tested, about 20% had one in any assay.

MOLECULE: CC(=O)C(CO)C(=O)Nc1ccccc1 (stereo unspecified)
growth, %: 106
//
MOLECULE: COc1ccc(C2=NN(C(=O)c3cc(-c4ccc(C)cc4)nc4ccccc34)C(c3cc(-c4ccccc4)nn3-c3ccccc3)C2)cc1 (stereo unspecified)
growth, %: 90.6
//
MOLECULE: O=C(/C=C/c1c[nH]c2ccccc12)c1cc2ccccc2o1
growth, %: 79.6
//
MOLECULE: COC(=O)Nc1nc2ccc(C(=O)c3ccccc3N(C)C3COC3)cc2[nH]1
growth, %: 60.4
//
MOLECULE: Oc1ccc(Br)cc1/C=N/NC(=S)NC12CC3CC(CC(C3)C1)C2
growth, %: 64.3
//
MOLECULE: COc1ccc(-c2nc(SCC(C)C)nc(Nc3ccc([N+](=O)[O-])cc3)c2C#N)cc1
growth, %: 104
//
MOLECULE: Cc1ccc(NC(=O)CCl)cc1Cl
growth, %: 76.7
//
MOLECULE: C=CN(C)S(C)(=O)=O
growth, %: 46.8
//
MOLECULE: FC(F)(F)c1cccc(-c2[nH]ncc2-c2nnnn2-c2ccccc2)c1
growth, %: 42.8
//
MOLECULE: Cc1nn(-c2ccccc2)c(N)c1N=C1NC(=O)/C(=C/c2ccc(Cl)cc2)S1
growth, %: 75.8
//
MOLECULE: Nc1nc2c(c3cnccc13)C(c1cccc(Br)c1)Cc1cnccc1-2 (stereo unspecified)
growth, %: -15.6
//
MOLECULE: COc1cc(/C=C/C(=O)c2ccc(F)cc2)ccc1OCCCCOc1cc2c(cc1OC)C(=O)N1CCCC1C=N2 (stereo unspecified)
growth, %: -49.9
//
MOLECULE: CCN(CCO)CCNc1ccc(C)c2sc3cc(OC)ccc3c(=O)c12
growth, %: 88.7
//
MOLECULE: O=C(/C=C1\C(=O)N(Cc2ccc([N+](=O)[O-])cc2)c2ccccc21)c1ccc(OCCN2CCCCC2)cc1
growth, %: -80
//
MOLECULE: CC(C)OC(=O)c1ccc2n1CCCc1cnc(Nc3ccccc3)nc1-2
growth, %: 86.4
//
MOLECULE: COC1=C(OC)C(=O)c2ccccc2C1=O
growth, %: 101
//
MOLECULE: COc1ccc(-c2cc(C#N)c(NNC(C)=O)[nH]2)cc1
growth, %: 119
//
MOLECULE: C=C(C)[C@@H]1CC[C@]2(COC(=O)c3ccccc3C(=O)O)CC[C@]3(C)[C@H](CC[C@@H]4[C@@]5(C)CCCNC(C)(C)[C@@H]5CC[C@]43C)[C@@H]12
growth, %: 72.6
//
MOLECULE: CC(=O)NCCN
growth, %: 102
//
MOLECULE: CCOC(=O)C(C)C(C)(O)c1ccccc1 (stereo unspecified)
growth, %: 105
//
MOLECULE: CC[C@H](Nc1ncnc2nc[nH]c12)c1nc2cccc(NCc3ccc(C(=O)NO)nc3)c2c(=O)n1-c1ccccc1
growth, %: 13.3

###

# Test system: SK-MEL-2 melanoma
# TEST_SUMMARY: NCI-60 one-dose screen, 48 h
# RUN_PARAMETERS: 10 µM unless noted
The panel holds about 83,000 compounds, 20% with a hit somewhere; the sample as a whole holds those more often. Activity calls are given as the source filed them. The calls were made as follows: active = growth percent below 10; inactive = the rest.
Classes used: 1 for active, 0 for inactive

MOLECULE: CCCCCCCCCCCCCCCC[n+]1cccc(C#N)c1
DISCRETE_LABEL: 0
--
MOLECULE: CCCCS(=O)(=O)c1cc(Nc2ccc(O)c3c2C(=O)c2ccccc2C3=O)ccc1C
DISCRETE_LABEL: 0
--
MOLECULE: O=C(/C=C\c1ccc(NCc2ccc(C(=O)O)cc2)cc1)CCl
DISCRETE_LABEL: 0
--
MOLECULE: O=C(CCC(=O)N(CCO)CCO)N(CCO)CCO
DISCRETE_LABEL: 0
--
MOLECULE: CC(=O)/C(=C\c1c(-c2ccccc2)[nH]c2ccccc12)S(=O)(=O)c1ccccc1
DISCRETE_LABEL: 1
--
MOLECULE: COc1ccc(C2=C/C(=C\c3ccc(Cl)cc3)C(=O)NN2C(=S)NN)cc1
DISCRETE_LABEL: 0
--
MOLECULE: CCOC(=O)CCCCCCCCC(=O)OCC
DISCRETE_LABEL: 0
--
MOLECULE: N=C(c1ccccc1)N(Cc1ccccc1)Cc1ccccc1
DISCRETE_LABEL: 0
--
MOLECULE: CC(=O)Nc1nc(C)c(C(=O)NNC(=O)Nc2ccccc2)s1
DISCRETE_LABEL: 0
--
MOLECULE: O=C1/C(=C\c2cn(-c3nc(N4CCOCC4)nc(N4CCOCC4)n3)c3ccccc23)c2ccccc2N1c1c(Cl)cccc1Cl
DISCRETE_LABEL: 0
--
MOLECULE: CNCCCNCCCCNCCCN1C(=O)c2ccc3c4c(ccc(c24)C1=O)C(=O)N(CCCNCc1ccccc1OC)C3=O
DISCRETE_LABEL: 0
--
MOLECULE: CCOC(=O)CSSCC(=O)OCC
DISCRETE_LABEL: 0
--
MOLECULE: O=CN/N=C/c1ccc(Cl)c([N+](=O)[O-])c1
DISCRETE_LABEL: 0
--
MOLECULE: COc1ccccc1Cn1cc2c(c1)-c1oncc1CC2
DISCRETE_LABEL: 0
--
MOLECULE: COC(=O)[C@@H]1[C@H](O)[C@H](C)[C@H](O)[C@H](C)/C=C\C=C(C)C(=O)Nc2c(C)c(OC(C)=O)c3c(c2O)C(=O)C(C)=C2OCOC(=C23)C(C)=C[C@@](C)(O)[C@H](O)[C@@H](C)[C@H]1OC(C)=O
DISCRETE_LABEL: 1
--
MOLECULE: N=C(N)c1ccc(-c2ccc(-c3cc(Cl)cc(Cl)c3)s2)cc1
DISCRETE_LABEL: 1
--
MOLECULE: COc1cc2ncnc(-n3ncc4cc(NC(=O)Nc5ccc(Cl)c(C)c5)ccc43)c2cc1OC
DISCRETE_LABEL: 0
--
MOLECULE: COC(=O)c1c[n+]([O-])ccc1OC
DISCRETE_LABEL: 0
--
MOLECULE: CC(=O)/C(=C/c1ccc(-c2ccccc2)cc1)C(=O)c1ccccc1
DISCRETE_LABEL: 0
--
MOLECULE: C=C(C)C(C(=O)OCC)(C(=O)OCC)C(C)C
DISCRETE_LABEL: 0
--
MOLECULE: CC1(C)NCCC[C@]2(C)[C@H]3CC=C4[C@@H]5C[C@](C)(COC(=O)c6ccccc6C(=O)O)CC[C@]5(C)CC[C@@]4(C)[C@]3(C)CC[C@@H]12
DISCRETE_LABEL: 0
--
MOLECULE: O=C(O)c1occ(Cl)c1Cl
DISCRETE_LABEL: 0
--
MOLECULE: CCn1cnc(C[C@H](NC(=O)[C@@H](NC(=O)Nc2cc(C(F)(F)F)cc(C(F)(F)F)c2)C(C)C)C(=O)OC)c1
DISCRETE_LABEL: 1
--
MOLECULE: CC(C)CSc1nc(-c2ccc(F)cc2)c(C#N)c(N2CCCCC2)n1
DISCRETE_LABEL: 0
--
MOLECULE: Cc1c(CN(C)C)cc(C(C)C)cc1C(C)C
DISCRETE_LABEL: 0
--
MOLECULE: CC(O)CN(CC(C)O)N(CC(C)O)CC(C)O (stereo not given)
DISCRETE_LABEL: 0
--
MOLECULE: CCCNC(=O)Oc1ccc(/C(=C(/CC)Cc2ccccc2)c2ccc(OCCN(CC)CC)cc2)cc1
DISCRETE_LABEL: 0
--
MOLECULE: CCCCN(CCC)CCCCCCCCCCN1CCCc2ccccc21
DISCRETE_LABEL: 0
--
MOLECULE: C=C[C@]1(C)C=C2C(=O)[C@@]3(O)OC[C@@]4(CCCC(C)(C)C43O)C2(O)C(O)C1 (stereo not given in full)
DISCRETE_LABEL: 1
--
MOLECULE: CC[N+](C)(C)N
DISCRETE_LABEL: 0
--
MOLECULE: CCC(C)C1NC(=O)C(CC(C)C)NC(=O)C(C)NC(=O)C(C(C)C)NC(=O)C(CCCCN)NC(=O)C(CC(C)C)NC(=O)C(C(C)C)NC(=O)[C@H](C)NC(=O)C(C(C)CC)NC(=O)C(CCCN=C(N)N)NC(=O)C(CCCCN)NC(=O)C(CCCN=C(N)N)NC(=O)C(CCCCN)NC(=O)C([C@H](C)CC)NC(=O)C(CCCCN)NC1=O (stereo not given in full)
DISCRETE_LABEL: 0
--
MOLECULE: O=C1/C(=N\c2cc(=O)[nH]n2S(=O)(=O)c2ccccc2)Nc2ccccc21
DISCRETE_LABEL: 0
--
MOLECULE: CC1=NN(c2cccc(Cl)c2)C(=O)/C1=C\c1cn(-c2nc(N3CCOCC3)nc(N3CCOCC3)n2)c2ccccc12
DISCRETE_LABEL: 0
--
MOLECULE: Oc1ccccc1/C=N/N=C/c1c(O)ccc2ccccc12
DISCRETE_LABEL: 0
--
MOLECULE: COc1ccc(NC(=O)/C=C(C)/C=C/C=C(C)/C=C/C2=C(C)CCCC2(C)C)cc1
DISCRETE_LABEL: 0
--
MOLECULE: CCCCCCCCCCC(C[N+](C)(C)C/C=C/c1ccccc1)C(O)c1ccccc1 (stereo not given)
DISCRETE_LABEL: 1
--
MOLECULE: CCOC(=O)C(C)C(C)(O)c1ccccc1 (stereo not given)
DISCRETE_LABEL: 0
--
MOLECULE: COc1nc(OC)nc(-c2cc(C(=O)c3ccc(Br)cc3)n3cc(C)cc(C)c23)n1
DISCRETE_LABEL: 0
--
MOLECULE: CCCC[N+](C)(N)CCCC
DISCRETE_LABEL: 0
--
MOLECULE: Brc1c(-c2ccncc2)nc2n1CCS2
DISCRETE_LABEL: 0

Hello, the source for this data is PubChem BioAssay (NCI), in case you need it.
